Molecular target: FGFR1 (UniProt P11362)
Sequence (P11362 whole entry, looked up): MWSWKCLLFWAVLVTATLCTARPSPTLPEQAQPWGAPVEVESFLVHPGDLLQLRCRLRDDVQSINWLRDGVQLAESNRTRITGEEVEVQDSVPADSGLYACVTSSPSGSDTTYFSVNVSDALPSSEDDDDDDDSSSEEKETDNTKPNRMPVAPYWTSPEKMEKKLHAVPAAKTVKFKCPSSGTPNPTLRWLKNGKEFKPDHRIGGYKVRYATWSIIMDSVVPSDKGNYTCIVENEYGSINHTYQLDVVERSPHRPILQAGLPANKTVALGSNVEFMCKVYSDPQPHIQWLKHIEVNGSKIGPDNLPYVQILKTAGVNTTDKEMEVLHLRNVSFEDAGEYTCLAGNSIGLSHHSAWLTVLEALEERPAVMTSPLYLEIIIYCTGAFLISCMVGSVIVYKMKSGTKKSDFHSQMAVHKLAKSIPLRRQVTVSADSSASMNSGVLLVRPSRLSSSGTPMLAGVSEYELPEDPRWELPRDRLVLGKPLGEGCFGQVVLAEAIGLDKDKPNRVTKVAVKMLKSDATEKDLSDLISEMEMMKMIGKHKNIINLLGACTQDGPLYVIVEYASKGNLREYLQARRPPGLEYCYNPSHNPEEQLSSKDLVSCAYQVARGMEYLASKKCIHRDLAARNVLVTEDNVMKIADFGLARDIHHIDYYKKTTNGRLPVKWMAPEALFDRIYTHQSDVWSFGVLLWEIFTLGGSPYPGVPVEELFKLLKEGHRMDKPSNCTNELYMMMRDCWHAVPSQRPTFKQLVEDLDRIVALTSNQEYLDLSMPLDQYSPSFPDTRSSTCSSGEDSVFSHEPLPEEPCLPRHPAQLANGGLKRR
Test: phosphorylation enrichment, bacterial display (enrichment ratio); higher = better substrate or ligand; peptides without Tyr show the background;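 also: 11-residue human phosphosite peptides and single-mutation variants displayed on the E. coli surface, counted by deep sequencing, each peptide's frequency after selection divided by its frequency in the unselected input library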;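 also: frequency after pTyr selection over input frequency; kinase dosed for 20-30% of maximal phosphorylation in three min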
Let's look at some sequences and their measured phosphorylation enrichment.

{"ITEM SEQUENCE": "MARDIYRASYY [ALK_Y1278]", "phosphorylation enrichment": 0.624}
{"ITEM SEQUENCE": "LKLWDYSRGRC [WDR5B_Y239]", "phosphorylation enrichment": 0.597}
{"ITEM SEQUENCE": "KTSGNYLPVTG [WDR19_Y28_A30P]", "phosphorylation enrichment": 0.369}
{"ITEM SEQUENCE": "RGFDTYFGFLL [ARSB_Y165_YF]", "phosphorylation enrichment": 3.4}
{"ITEM SEQUENCE": "KASRKYYAMKI [AKT3_Y173_G171R]", "phosphorylation enrichment": 0.481}
{"ITEM SEQUENCE": "TKDTFYKQRMF [GBA_Y451_P454R]", "phosphorylation enrichment": 0.41}
{"ITEM SEQUENCE": "GASWRYRSGVS [NEU1_Y242_G243R]", "phosphorylation enrichment": 0.494}
{"ITEM SEQUENCE": "PEPHIYAVADV [MYO9A_Y216_L211P]", "phosphorylation enrichment": 0.667}
{"ITEM SEQUENCE": "GPCKAYELSQR [SETX_Y1297_R1294C]", "phosphorylation enrichment": 0.547}
{"ITEM SEQUENCE": "TFWKKYCTFWK [CCDC70_Y125_R126C]", "phosphorylation enrichment": 0.438}
{"ITEM SEQUENCE": "NDKLRYEVSSP [CDH13_Y66]", "phosphorylation enrichment": 0.475}
{"ITEM SEQUENCE": "PLQKTYNYNVL [SLC4A1_Y553]", "phosphorylation enrichment": 0.711}
{"ITEM SEQUENCE": "RPSELYFSKIG [SMG1_Y2253_YF]", "phosphorylation enrichment": 0.641}
{"ITEM SEQUENCE": "GILDVYIFLGP [GAA_Y340]", "phosphorylation enrichment": 0.864}
{"ITEM SEQUENCE": "YNDSTYNQQLI [ZPLD1_Y198]", "phosphorylation enrichment": 0.495}
{"ITEM SEQUENCE": "KLLRLYAVVTR [LYN_Y306_V303L]", "phosphorylation enrichment": 0.409}
{"ITEM SEQUENCE": "LKSEMYQKLFK [RGS13_Y146_L150F]", "phosphorylation enrichment": 0.715}
{"ITEM SEQUENCE": "TNYRFYLRSLE [MTM1_Y71_L70F]", "phosphorylation enrichment": 0.438}
{"ITEM SEQUENCE": "ACEVLYNIAFM [NCF2_Y125]", "phosphorylation enrichment": 0.976}
{"ITEM SEQUENCE": "FDDIAHIRKTL [PIK3CA_Y1021_Y1021H]", "phosphorylation enrichment": 0.529}
{"ITEM SEQUENCE": "RPYVYYYSYLL [PTEN_Y177_R173P]", "phosphorylation enrichment": 7.24}
{"ITEM SEQUENCE": "KIIATYRLCSE [DNAH3_Y1586_V1583I]", "phosphorylation enrichment": 0.431}
{"ITEM SEQUENCE": "GSCQEYTGAPF [NAXD_Y85_G81S_YF]", "phosphorylation enrichment": 0.536}
{"ITEM SEQUENCE": "VVSMNYRVGAL [BCHE_Y174]", "phosphorylation enrichment": 0.524}
{"ITEM SEQUENCE": "KASGKYYAMKI [AKT3_Y173]", "phosphorylation enrichment": 0.565}
{"ITEM SEQUENCE": "CRAVKYLQMVD [AVPR2_Y117_G122D]", "phosphorylation enrichment": 0.427}
{"ITEM SEQUENCE": "IQTDGDRAPEA [UHMK1_Y197_Y197D]", "phosphorylation enrichment": 0.602}
{"ITEM SEQUENCE": "TKLKDYFIFNK [CCDC42_Y149_A144T_YF]", "phosphorylation enrichment": 1.05}
{"ITEM SEQUENCE": "RRERDYTNLPS [CSF1R_Y923]", "phosphorylation enrichment": 0.493}
